Target: Neuronal acetylcholine receptor (Rattus norvegicus) (UniProt P04757+P09483+P12389+P12390+P12392+P43144+Q9JLB5+P12391+P43143+P20420+Q05941)
Listed here: items and their measured Mean enhancement of binding.
Give a plain numeric answer without units written out.

Cc1ccncc1 = 6.6

Moving on to another molecule below.
State the recorded Mean enhancement of binding for this entry: CC1CCCNC1 (stereo not drawn)
5.2

---

Target: Neuronal acetylcholine receptor (Rattus norvegicus) (UniProt P04757+P09483+P12389+P12390+P12392+P43144+Q9JLB5+P12391+P43143+P20420+Q05941)
Listed here: items and their measured Mean enhancement of binding.
Give a plain numeric answer without units written out.

// solved cases for Mean enhancement of binding follow
Oc1ccccn1 = 10
Cc1cccc(C)n1 = 3.1
CC1CCNCC1 = 6.1
CN1CCC(O)CC1 = 13
OC1CCNCC1 = 4

Moving on to another compound below.
State the recorded Mean enhancement of binding for this entry: OC1CCCNC1 (stereo unspecified)
8.6
